Tested system: Glycogen synthase kinase-3 beta (Homo sapiens, UniProt P49841)
Sequence (P49841 whole entry): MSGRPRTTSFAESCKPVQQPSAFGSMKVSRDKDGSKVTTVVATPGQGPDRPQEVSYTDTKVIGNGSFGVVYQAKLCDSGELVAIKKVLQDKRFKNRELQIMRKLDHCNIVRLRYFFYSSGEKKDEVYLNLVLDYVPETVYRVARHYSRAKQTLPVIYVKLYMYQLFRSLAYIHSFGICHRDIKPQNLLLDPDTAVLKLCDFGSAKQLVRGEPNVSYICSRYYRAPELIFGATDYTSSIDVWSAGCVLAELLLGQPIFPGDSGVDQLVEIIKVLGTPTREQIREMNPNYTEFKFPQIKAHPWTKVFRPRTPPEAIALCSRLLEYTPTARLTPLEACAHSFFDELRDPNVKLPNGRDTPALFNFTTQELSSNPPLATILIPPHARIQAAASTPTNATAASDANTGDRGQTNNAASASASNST
Assay text: Inhibition of recombinant human GSK-3beta using phosphorylated polypeptide as substrate incubated for 30 mins in presence of ATP by kinase-glo luminescence assay
Measure name: IC50 (µM)

smiles_data=O=C(Nc1cccc(C(F)(F)F)c1)N[C@H]1CO[C@H]2[C@@H]1OC[C@@H]2Nc1nccc(-c2cccc(F)c2)n1 units_text=µM modifier== number=2.06
smiles_data=O=C(Nc1cccc(C(F)(F)F)c1)O[C@@H]1CO[C@H]2[C@@H]1OC[C@@H]2NC(=S)Nc1ccc(Cl)cc1 units_text=µM modifier=> number=50
smiles_data=O=C(Nc1cccc(C(F)(F)F)c1)N[C@H]1CO[C@H]2[C@@H]1OC[C@@H]2Nc1nccc(-c2cccs2)n1 units_text=µM modifier== number=4.04
smiles_data=COc1ccc(-c2ccnc(N[C@H]3CO[C@H]4[C@@H]3OC[C@@H]4NC(=O)Nc3ccc(C(C)=O)cc3)n2)cc1 units_text=µM modifier== number=0.412

* * *

Tested system: Glycogen synthase kinase-3 beta (Homo sapiens, UniProt P49841)
Assay text: Inhibition of recombinant human GSK-3beta using phosphorylated polypeptide as substrate incubated for 30 mins in presence of ATP by kinase-glo luminescence assay
Measure name: IC50 (µM)

molecule=O=C(c1cccnc1)N1C[C@@H](F)[C@@H](OCc2nc3cc(C(F)(F)F)ccc3[nH]2)C1 measure_name=IC50 units_text=µM modifier=> number=50
molecule=O=C(Nc1cccc2ccccc12)O[C@@H]1CO[C@H]2[C@@H]1OC[C@@H]2NC(=S)Nc1ccc(Cl)cc1 measure_name=IC50 units_text=µM modifier=> number=50
molecule=Cc1cc2nc(CO[C@H]3CN(Cc4cccnc4)C[C@H]3F)[nH]c2cc1C measure_name=IC50 units_text=µM modifier=> number=50
molecule=O=C(Nc1cccc(C(F)(F)F)c1)N[C@H]1CO[C@H]2[C@@H]1OC[C@@H]2Nc1nccc(-c2ccco2)n1 measure_name=IC50 units_text=µM modifier== number=2.95
molecule=O=C(Nc1cccc(C(F)(F)F)c1)N[C@H]1CO[C@H]2[C@@H]1OC[C@H]2OC(=O)Nc1cccc2ccccc12 measure_name=IC50 units_text=µM modifier=> number=50
molecule=COc1ccc(-c2ccnc(N[C@H]3CO[C@H]4[C@@H]3OC[C@@H]4NC(=O)Nc3cccc(C#N)c3)n2)cc1 measure_name=IC50 units_text=µM modifier== number=0.087
molecule=CN(C)c1ccc(-c2ccnc(N[C@H]3CO[C@H]4[C@@H]3OC[C@@H]4NC(=O)Nc3cccc(C(F)(F)F)c3)n2)cc1 measure_name=IC50 units_text=µM modifier== number=5.66
molecule=COc1ccc(-c2ccnc(N[C@H]3CO[C@H]4[C@@H]3OC[C@@H]4NC(=O)Nc3ccccc3)n2)cc1 measure_name=IC50 units_text=µM modifier== number=0.56
molecule=COc1ccccc1-c1ccnc(N[C@H]2CO[C@H]3[C@@H]2OC[C@@H]3NC(=O)Nc2cccc(C(F)(F)F)c2)n1 measure_name=IC50 units_text=µM modifier== number=27
molecule=CS(=O)(=O)c1ccc(CN2C[C@@H](F)[C@@H](OCc3nc4cc(C(F)(F)F)ccc4[nH]3)C2)cc1 measure_name=IC50 units_text=µM modifier=> number=50
molecule="CC(C)=CC(=O)N1CC(NC(=O)Nc2ccc(F)cc2F)CC1C(=O)N[C@H](Cc1c[nH]c2ccccc12)C(N)=O (stereo partly specified)" measure_name=IC50 units_text=µM modifier=> number=50
molecule=Cn1cccc1C(=O)N1C[C@H](NC(=O)Nc2ccc(F)cc2F)C[C@@H]1C(=O)N[C@H](Cc1c[nH]c2ccccc12)C(N)=O measure_name=IC50 units_text=µM modifier=> number=50
molecule=N#Cc1cccc(NC(=O)N[C@H]2CO[C@H]3[C@@H]2OC[C@@H]3Nc2nccc(-c3cccc(F)c3)n2)c1 measure_name=IC50 units_text=µM modifier== number=2.08
molecule=CC(C)(C)c1ccnc(N[C@H]2CO[C@H]3[C@@H]2OC[C@@H]3NC(=O)Nc2cccc(C(F)(F)F)c2)n1 measure_name=IC50 units_text=µM modifier== number=14
molecule=COc1ccc(C(=O)N2C[C@@H](F)[C@@H](OCc3nc4cc(C(F)(F)F)ccc4[nH]3)C2)cc1 measure_name=IC50 units_text=µM modifier=> number=50
molecule=Cc1nn(-c2ccccc2[N+](=O)[O-])c(C)c1[C@@H]1C=C[C@@H](NC(=O)Nc2cccc(C#N)c2)C1 measure_name=IC50 units_text=µM modifier=> number=50
